These entries and their values trace back to patent US20210214375A1.

Target: MAGL (Mus musculus, UniProt O35678)
Construct: from tissue; host or cells: brain of wild-type C57Bl/6J mice
Sequence (O35678 whole entry): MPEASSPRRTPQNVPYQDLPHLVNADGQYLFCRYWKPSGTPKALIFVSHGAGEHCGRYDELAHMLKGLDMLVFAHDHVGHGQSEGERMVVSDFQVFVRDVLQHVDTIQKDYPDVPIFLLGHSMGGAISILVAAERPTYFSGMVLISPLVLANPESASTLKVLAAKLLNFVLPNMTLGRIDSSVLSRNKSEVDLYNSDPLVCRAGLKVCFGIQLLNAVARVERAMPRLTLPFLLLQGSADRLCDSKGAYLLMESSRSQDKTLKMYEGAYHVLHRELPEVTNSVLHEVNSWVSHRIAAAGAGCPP
Assay: Mouse brain proteomes from inhibitor treated mice (oral gavage, brain proteomes analyzed 4 h after administration)
Assay type: in vivo, mouse (C57Bl/6J)
Settings: brain proteome 4 h after administration, read-out: % Inh 5 mg/kg MGLL (Mouse)
Give inhibition at 5 mg/kg for every item shown.

Previously resolved entries follow.
O=C(O)CN1CCN(c2cc(C(F)(F)F)ccc2CN2CCCC23CCN(C(=O)OC(C(F)(F)F)C(F)(F)F)CC3)CC1: ≤ 25%
O=C(OC(C(F)(F)F)C(F)(F)F)N1CCC2(CCN(Cc3ccc(Cl)cc3N3CCCCC3)CC2)C1: ≥ 75%
CN(Cc1ccc(Cl)cc1C1(C(=O)O)CCCC1)C1(C)CCN(C(=O)OC(C(F)(F)F)C(F)(F)F)CC1: ≥ 75%

Hey, quick one: what's inhibition at 5 mg/kg for each of these?
1. O=C(OC(C(F)(F)F)C(F)(F)F)N1CCC2(CC1)CN(Cc1c(N3CCCCC3)cccc1C(F)(F)F)C2
2. CN(Cc1ccc(C(F)(F)F)cc1C1(C(=O)O)CCCC1)C1(C)CCN(C(=O)OC(C(F)(F)F)C(F)(F)F)CC1
3. CN1CCC2(CCN(c3cc(C(F)(F)F)ccc3CN3CCN(C(=O)OC(C(F)(F)F)C(F)(F)F)CC3)CC2)C1
4. CC(=O)N1CCC2(CCN(c3cc(Cl)ccc3CN3CCN(C(=O)OC(C(F)(F)F)C(F)(F)F)CC3)CC2)C1
5. CC1(C(=O)O)CCCN(c2cc(C(F)(F)F)ccc2CN2CC3(CCN(C(=O)OC(C(F)(F)F)C(F)(F)F)CC3)C2)C1 (stereo not drawn)
6. CS(=O)(=O)N1CCN(c2cccc(Cl)c2CN2CC3(CCN(C(=O)OC(C(F)(F)F)C(F)(F)F)CC3)C2)CC1

Completion:
1. ≥ 75%
2. ≥ 75%
3. ≤ 25%
4. ≥ 75%
5. ≤ 25%
6. ≥ 75%

Quick request: inhibition at 5 mg/kg for each listed item, please.
1. O=C(O)C1CCN(Cc2cc(C(F)(F)F)ccc2C(=O)N2CCCC23CCN(C(=O)OC(C(F)(F)F)C(F)(F)F)CC3)CC1
2. O=C(O)CN1CC2CN(c3cc(C(F)(F)F)ccc3CN3CCCC34CCN(C(=O)OC(C(F)(F)F)C(F)(F)F)CC4)CC2C1 (stereo not drawn)
3. O=C(OC(C(F)(F)F)C(F)(F)F)N1CCC2(CCN(Cc3ccc(Cl)cc3N3CCC(F)CC3)CC2)C1
4. O=C(OC(C(F)(F)F)C(F)(F)F)N1CCC2(CC1)CN(Cc1ccc(C(F)(F)F)cc1)C2
5. CC(=O)N1CCN(c2cccc(C(F)(F)F)c2CN2CC3(CCN(C(=O)OC(C(F)(F)F)C(F)(F)F)CC3)C2)CC1
6. O=C(OC(C(F)(F)F)C(F)(F)F)N1CCC2(CCCN2Cc2cc(C(F)(F)F)cc(C3(C(=O)O)CCCC3)c2)CC1
7. CN(Cc1cc(N2CCOC(C)(C(=O)O)C2)cc(C(F)(F)F)c1)C1(C)CCN(C(=O)OC(C(F)(F)F)C(F)(F)F)CC1 (stereo not drawn)
8. O=C(O)CN1CC2CC1CN2c1cc(C(F)(F)F)ccc1CN1CCCC12CCN(C(=O)OC(C(F)(F)F)C(F)(F)F)CC2 (stereo not drawn)

Completion:
≥ 75%
≤ 25%
≥ 75%
≥ 75%
≥ 75%
≥ 75%
≤ 25%
≤ 25%

Prompt: I'd like to know its inhibition at 5 mg/kg. The compound in question is `O=C(OC(C(F)(F)F)C(F)(F)F)N1CCC2(CC1)CN(Cc1c(Cl)cccc1N1CCOCC1)C2`
Completion: ≥ 75%
